- TARGET_DESC: Short transient receptor potential channel 6 (Mus musculus) (UniProt Q61143)
- Sequence (Q61143 whole entry, looked up): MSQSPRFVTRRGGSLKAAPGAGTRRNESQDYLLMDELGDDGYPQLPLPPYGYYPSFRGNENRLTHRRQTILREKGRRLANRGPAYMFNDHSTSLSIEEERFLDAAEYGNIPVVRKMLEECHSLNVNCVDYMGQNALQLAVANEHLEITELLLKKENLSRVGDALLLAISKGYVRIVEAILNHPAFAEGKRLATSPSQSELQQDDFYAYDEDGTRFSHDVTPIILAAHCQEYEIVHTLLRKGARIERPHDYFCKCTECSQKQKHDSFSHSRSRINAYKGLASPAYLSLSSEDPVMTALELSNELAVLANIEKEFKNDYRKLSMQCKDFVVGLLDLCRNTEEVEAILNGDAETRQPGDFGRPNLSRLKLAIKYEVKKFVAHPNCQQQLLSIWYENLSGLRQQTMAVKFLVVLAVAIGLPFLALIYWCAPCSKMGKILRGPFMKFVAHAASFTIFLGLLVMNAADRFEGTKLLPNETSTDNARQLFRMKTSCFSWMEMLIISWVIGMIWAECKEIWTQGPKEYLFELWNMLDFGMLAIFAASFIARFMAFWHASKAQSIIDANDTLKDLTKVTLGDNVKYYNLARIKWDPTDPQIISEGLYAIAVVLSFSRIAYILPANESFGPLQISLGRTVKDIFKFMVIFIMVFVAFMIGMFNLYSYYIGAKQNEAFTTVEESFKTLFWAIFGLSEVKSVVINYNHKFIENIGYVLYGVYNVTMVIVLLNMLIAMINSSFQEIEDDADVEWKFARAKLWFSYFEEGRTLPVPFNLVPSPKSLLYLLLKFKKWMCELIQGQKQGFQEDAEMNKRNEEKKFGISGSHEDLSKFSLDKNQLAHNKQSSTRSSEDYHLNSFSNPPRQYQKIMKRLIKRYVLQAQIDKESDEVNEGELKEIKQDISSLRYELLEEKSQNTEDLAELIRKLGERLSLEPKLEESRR
- PROCEDURE_SUMMARY: mouse TRPC6 channel inhibitors, primary screen, cell-based, HEK293, membrane potential dye (AID 2553);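 on B-score: B-score derived from integrated fluorescence ratio over the kinetic read; more negative B-score means stronger inhibition of depolarization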
- EXPERIMENTAL_CONTEXT: ACh-evoked depolarization, at 10 µM; active compounds read low
Hit rate of the full screen: of about 310,000 compounds, about 3,300 (1.1%) were called active. Only a selection was taken, and actives are over-represented in it overall.
METRIC_NAME: B-score

For Cc1ccc(S(=O)(=O)N2CCN(C(=O)c3ccc(-n4cncn4)c([N+](=O)[O-])c3)CC2)cc1 the compound record lists B-score as inactive

For CCNC(=S)NNC(=O)C1CCN(Cc2ccccc2)CC1 the compound record lists B-score as inactive

For CC(Nc1nc(N2CCCC2)nc2ccccc12)c1ccccc1 (stereo not drawn) the compound record lists B-score as -6.87 (active)

For O=S(=O)(c1cccc(Cn2nnc(-c3ccc(F)cc3)n2)c1)N1CCOCC1 the compound record lists B-score as -5.77 (active)

For COc1ccc(Cl)cc1NC(=O)CCS(=O)(=O)c1cc2c(cc1C)NC(=O)CO2 the compound record lists B-score as -5.71 (active)

Next:
For CCn1c(SCC(=O)Nc2ccc(Br)cc2)nc2sc3c(c2c1=O)CCN(C)C3 the compound record lists B-score as inactive

For Cc1cc2oc(=O)cc(CN3CCN(Cc4ccccc4)CC3)c2cc1C the compound record lists B-score as inactive

For Cn1c(NC(=O)c2ccc3c(c2)OCO3)cc(=O)n(C)c1=O the compound record lists B-score as inactive

====

- TARGET_DESC: Short transient receptor potential channel 6 (Mus musculus)
- PROCEDURE_SUMMARY: mouse TRPC6 channel inhibitors, primary screen, cell-based, HEK293, membrane potential dye (AID 2553)
- EXPERIMENTAL_CONTEXT: ACh-evoked depolarization, at 10 µM
Among all 310,000 compounds or so, about 3,300 (1.1%) were called active.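 Rule for the calls: active = B-score under library mean minus 3 SD, initial fluorescence not abnormally high, positive integrated signal ratio; inactive = the rest.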 The list comes from a sample in which actives are over-represented; it also holds close analogues and randomly drawn compounds.
Write down the outcome that applies. Available outcomes: true (1) for active, false (0) for inactive

Ask: // outcome(item) with item = COc1ccc(/C=C/CN2CCCC(C(=O)c3cc(F)ccc3F)C2)cc1 (stereo unspecified)
Result: false (0)

Ask: // outcome(item) with item = Cc1ccc2[nH]cc(CCNC(=O)C3CCCCC3)c2c1
Result: false (0)

Ask: // outcome(item) with item = CCCCOc1ccc(CSC(=N)N)cc1[N+](=O)[O-]
Result: true (1)

Ask: // outcome(item) with item = O=S(=O)(Cc1ccccc1)c1nc2ccccc2n1Cc1ccccn1
Result: false (0)

Ask: // outcome(item) with item = O=C(CN1CCCCCC1)NCCN1C(=O)S/C(=C\c2ccccc2Cl)C1=O
Result: true (1)

Ask: // outcome(item) with item = S=c1[nH]c2ccccc2c2ccccc12
Result: false (0)

Ask: // outcome(item) with item = CCCCOC(=O)CCCc1ccc([N+](=O)[O-])cc1[N+](=O)[O-]
Result: false (0)

Ask: // outcome(item) with item = COc1ccccc1Oc1ccc(N2CC(C(=O)OCC(=O)c3ccc(F)cc3)CC2=O)cc1 (stereo unspecified)
Result: false (0)

Ask: // outcome(item) with item = COc1ccc(NC(=O)CSc2nnc(-c3ccccc3F)n2C2CC2)cc1S(N)(=O)=O
Result: false (0)

Ask: // outcome(item) with item = CC(C)(C)NCC(O)COc1cccc2[nH]c(=O)[nH]c12 (stereo unspecified)
Result: false (0)

Ask: // outcome(item) with item = COc1ccc(C(=O)C2CCCN(Cc3cccn3-c3ccccn3)C2)c(C)c1 (stereo unspecified)
Result: true (1)

Ask: // outcome(item) with item = CC(C)Cc1nc(N2CCOCC2)c(C#N)c2c1CCC2
Result: false (0)

Ask: // outcome(item) with item = Fc1ccccc1Cn1cnc(NC(=S)NCCc2ccccc2)n1
Result: false (0)

Ask: // outcome(item) with item = CC(=O)NC(C)c1nc2ccccc2n1Cc1ccccc1F (stereo unspecified)
Result: false (0)

Ask: // outcome(item) with item = CN(C)CCCN(C(=O)c1ccc(S(=O)(=O)N2CCCCCC2)cc1)c1nc2cc3c(cc2s1)OCCO3
Result: false (0)

Ask: // outcome(item) with item = CCc1ccc2nc(N(CCCN(C)C)C(=O)c3ccc4c(c3)OCCO4)sc2c1
Result: true (1)

Ask: // outcome(item) with item = Cc1nc(SCc2ccc(F)cc2)c([N+](=O)[O-])[nH]1
Result: false (0)

Ask: // outcome(item) with item = COc1ccc(Cc2nnc(SCC(=O)N(c3ccccc3)C(C)C)n(N)c2=O)cc1
Result: false (0)

Ask: // outcome(item) with item = COc1ccc(CCN2C(=O)CC(N3CCC(C(N)=O)CC3)C2=O)cc1OC (stereo unspecified)
Result: false (0)

Ask: // outcome(item) with item = O=C(CN1C(=O)S/C(=C\c2ccccc2F)C1=O)NCCCn1ccnc1
Result: false (0)

Ask: // outcome(item) with item = O=C(NNS(=O)(=O)c1ccc(Cl)cc1)C1CCN(Cc2ccccc2)CC1
Result: true (1)

====

- TARGET_DESC: Short transient receptor potential channel 6 (Mus musculus)
- PROCEDURE_SUMMARY: mouse TRPC6 channel inhibitors, primary screen, cell-based, HEK293, membrane potential dye (AID 2553);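 on B-score: B-score derived from integrated fluorescence ratio over the kinetic read; more negative B-score means stronger inhibition of depolarization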
- EXPERIMENTAL_CONTEXT: ACh-evoked depolarization, at 10 µM; active compounds read low
The whole screen tested about 310,000 compounds, of which about 3,300 (1.1%) were called active. Shown is part of a subset that was picked to be rich in actives.
METRIC_NAME: B-score

For O=C1c2ccccc2C(=O)c2c1cccc2N1CCN(C/C=C/c2ccccc2)CC1 the compound record lists B-score as inactive

For O=C(NCc1ccc(Cl)cc1)NCc1ccc(Cl)cc1 the compound record lists B-score as inactive

For CCC(C)(C)NC(=O)C(c1ccc(OC)cc1)N(C(=O)CCC(=O)Nc1cc(C)on1)c1ccc(OC)cc1OC (stereo not drawn) the compound record lists B-score as inactive

For CCCCN=C(N)/C(C(=O)OCC)=C(\O)c1ccc(OC)cc1 the compound record lists B-score as inactive

For O=C(NCCO)C(=O)NCC(c1ccc2c(c1)OCO2)N1CCN(c2ccc(F)cc2)CC1 (stereo not drawn) the compound record lists B-score as inactive

For Cc1nn(-c2ccc([N+](=O)[O-])cc2)c(N)c1-c1ccccc1 the compound record lists B-score as inactive

For O=C(N/N=C\C1CC=CCC1)c1ccc(Br)o1 (stereo not drawn) the compound record lists B-score as inactive

For Cc1cc(=O)[nH]c(SCc2ccc(Cl)cc2)n1 the compound record lists B-score as inactive

For CC1=NN(c2ccccc2)C(=O)C1C(=O)c1ccc([N+](=O)[O-])cc1 (stereo not drawn) the compound record lists B-score as inactive

For Cn1c(/C(C#N)=C2/CCCCCN2)nc2ccccc21 the compound record lists B-score as -6.04 (active)

Next:
For Cc1cc(N2CCN(S(=O)(=O)c3ccc(C)c(C)c3)CC2)c2ccccc2n1 the compound record lists B-score as -5.95 (active)

For COCc1ccc(C(=O)N2CCc3c([nH]c4ccccc34)C2c2ccccn2)s1 (stereo not drawn) the compound record lists B-score as inactive

For CC1=C[C@H]2Cc3cc(C)cc(C)c3S(=O)(=O)[C@@H]2C=C1 the compound record lists B-score as inactive

For CCCC(=O)Nc1ccc(Cl)c(NC(=O)c2ccc(Br)o2)c1 the compound record lists B-score as inactive

For Cc1ccn(CC(=O)N2N=C(C(F)F)CC2(O)C(F)F)n1 (stereo not drawn) the compound record lists B-score as inactive

For CCc1ccc(NC(=O)CS(=O)CC(=O)N2CCN(c3ccccc3F)CC2)cc1 (stereo not drawn) the compound record lists B-score as inactive

For COc1ccc(-c2nonc2NC(=O)c2oc3ccc(F)cc3c2C)cc1OC the compound record lists B-score as inactive

For CCc1ccc(NC(=O)Cn2nc(C)c([N+](=O)[O-])c2C)cc1 the compound record lists B-score as inactive

====

- TARGET_DESC: Short transient receptor potential channel 6 (Mus musculus) (UniProt Q61143)
- PROCEDURE_SUMMARY: mouse TRPC6 channel inhibitors, primary screen, cell-based, HEK293, membrane potential dye (AID 2553)
- EXPERIMENTAL_CONTEXT: ACh-evoked depolarization, at 10 µM
Hit rate of the full screen: of about 310,000 compounds, about 3,300 (1.1%) were called active.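 Rule for the calls: active = B-score under library mean minus 3 SD, initial fluorescence not abnormally high, positive integrated signal ratio; inactive = the rest.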 The entries come from a sample that favours actives as a whole.
Write down the outcome that applies. Available outcomes: active, inactive

Ask: // outcome(item) with item = CCc1ccc(NC(=O)Cn2ncn3c(cc4ccccc43)c2=O)cc1
Result: inactive

Ask: // outcome(item) with item = CC(C)(C)Nc1nc(-c2ccccn2)nc2ccccc12
Result: active

Ask: // outcome(item) with item = COC(=O)C1=C(C)N(C)C(=S)NC1c1cc(OC)ccc1OC (stereo not given)
Result: inactive

Ask: // outcome(item) with item = O=C1CC(c2ccccc2)=NN1c1ccc([N+](=O)[O-])cc1
Result: active

Ask: // outcome(item) with item = CCOc1ccc(C2c3[nH]c4ccccc4c3CCN2Cc2cccn2-c2ncccn2)cc1 (stereo not given)
Result: inactive

Ask: // outcome(item) with item = Cc1cc(C)c(S(=O)(=O)NCCCN2CCOCC2)cc1Br
Result: inactive

Ask: // outcome(item) with item = Cc1ccc(-c2nc(COC(=O)c3c(C)noc3C)cs2)cc1
Result: inactive

Ask: // outcome(item) with item = Cc1ccccc1CS(=O)(=O)CC1(O)CCN(C(=O)c2cccc(C(F)(F)F)c2)CC1
Result: inactive

Ask: // outcome(item) with item = CSc1nnc(-c2ccc(C(F)(F)F)cn2)o1
Result: inactive

Ask: // outcome(item) with item = O=C1c2ccccc2C(=O)c2c1cccc2N1CCN(Cc2ccccc2)CC1
Result: active
